Reported pIC50 by item:
# Test system: Bel-7402
# assayOverview: Antiproliferative activity against human Bel7402 cells after 72 hrs by MTT assay
# Type: functional, cell-based
# assaySetup: Bel-7402, 72 h
Friendly reminder that pIC50 comes from taking -log10 of the concentration in mol/L.

Consider the reported pIC50 for these molecules:
- C=C1C(=O)[C@]23[C@H](O)[C@H]1CC[C@H]2[C@@]12CO[C@@]3(O)[C@@H](O)[C@@H]1C(C)(C)CC[C@@H]2OS(C)(=O)=O: 5.57
- C=C1C(=O)[C@@]23C(=O)OC[C@]4(C=CCC(C)(C)[C@H]4C=O)[C@@H]2CC[C@@H]1[C@H]3OC(=O)c1ccc(F)cc1: 5.74
- C=C1C(=O)[C@@]23C(=O)OC[C@]4([C@@H](OS(C)(=O)=O)CCC(C)(C)[C@H]4C=O)[C@@H]2CC[C@@H]1[C@H]3OC(=O)c1ccc(F)cc1: 5.51
- C=C1C(=O)[C@@]23C(=O)OC[C@]4(C=CCC(C)(C)[C@H]4C=O)[C@@H]2CC[C@@H]1[C@H]3OC(=O)c1cccc(C)c1: 5.44
- C=C1C(=O)[C@@]23C(=O)OC[C@]4(C=CCC(C)(C)[C@H]4C=O)[C@@H]2CC[C@@H]1[C@H]3OC(=O)/C=C/c1cccc([N+](=O)[O-])c1: 5.29
- C=C1C(=O)[C@@]23C(=O)OC[C@]4([C@@H](OS(C)(=O)=O)CCC(C)(C)[C@H]4C=O)[C@@H]2CC[C@@H]1[C@H]3OS(C)(=O)=O: 5.42
- C=C1C(=O)[C@@]23C(=O)OC[C@]4(C=CCC(C)(C)[C@H]4C=O)[C@@H]2CC[C@@H]1[C@H]3OC(=O)CC: 5.15
- C=C1C(=O)[C@@]23C(=O)OC[C@]4(C=CCC(C)(C)[C@H]4C=O)[C@@H]2CC[C@@H]1[C@H]3OC(=O)/C=C/c1ccccc1: 5.82

Requested read-out: pIC50. Entry: C=C1C(=O)[C@@]23C(=O)OC[C@]4([C@@H](OS(C)(=O)=O)CCC(C)(C)[C@H]4C=O)[C@@H]2CC[C@@H]1[C@H]3OC(=O)c1ccco1
5.96

Reported pIC50, molecule C=C1C(=O)[C@@]23C(=O)OC[C@]4([C@@H]5O[C@@H]5CC(C)(C)[C@H]4C=O)[C@@H]2CC[C@@H]1[C@H]3O : ____
5.34

Give the measured pIC50 of C=C1C(=O)[C@@]23C(=O)OC[C@]4(C=CCC(C)(C)[C@H]4C=O)[C@@H]2CC[C@@H]1[C@H]3OC(=O)c1cnccn1 .
5.89

Any idea what pIC50 was measured for C=C1C(=O)[C@@]23C(=O)OC[C@]4([C@@H](OS(C)(=O)=O)CCC(C)(C)[C@H]4C=O)[C@@H]2CC[C@@H]1[C@H]3OC(=O)CCCC ?
5.66

# pIC50 lookup, item C=C1C(=O)[C@@]23C(=O)OC[C@]4(C=CCC(C)(C)[C@H]4C=O)[C@@H]2CC[C@@H]1[C@H]3OC(=O)CCCC
5.66

Returns the measured pIC50 for the input molecule. Input: C=C1C(=O)[C@@]23C(=O)OC[C@]4(C=CCC(C)(C)[C@H]4C=O)[C@@H]2CC[C@@H]1[C@H]3OS(C)(=O)=O
5.89

Using the record for C=C1C(=O)[C@@]23C(=O)OC[C@]4(C=CCC(C)(C)[C@H]4C=O)[C@@H]2CC[C@@H]1[C@H]3OC(=O)c1ccco1 , report its pIC50.
6.08

Give the measured pIC50 of C=C1C(=O)[C@@]23C(=O)OC[C@]4(C=CCC(C)(C)[C@H]4C=O)[C@@H]2CC[C@@H]1[C@H]3O .
5.60

Reported pIC50, molecule C=C1C(=O)[C@@]23C(=O)OC[C@]4(C=CCC(C)(C)[C@H]4C=O)[C@@H]2CC[C@@H]1[C@H]3OC(C)=O : ____
6.24
